Reference source for all entries: ChEMBL document CHEMBL1144572

- system_name: Sphingosine 1-phosphate receptor 4 (Homo sapiens, UniProt O95977)
- Sequence (O95977 whole entry): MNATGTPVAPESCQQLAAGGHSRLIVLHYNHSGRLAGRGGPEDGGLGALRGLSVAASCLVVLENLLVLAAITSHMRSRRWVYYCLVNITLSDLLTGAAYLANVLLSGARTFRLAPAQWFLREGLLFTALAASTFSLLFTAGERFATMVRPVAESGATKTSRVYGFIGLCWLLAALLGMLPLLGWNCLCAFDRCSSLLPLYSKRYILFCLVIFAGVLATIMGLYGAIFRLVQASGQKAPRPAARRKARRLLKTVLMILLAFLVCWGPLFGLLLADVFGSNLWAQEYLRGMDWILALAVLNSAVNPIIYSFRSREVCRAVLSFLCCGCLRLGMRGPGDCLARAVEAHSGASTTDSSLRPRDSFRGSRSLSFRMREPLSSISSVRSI
- measurement_notes: Activity at human S1P4 receptor expressed in HEK293T cells by [35S]GTP-gamma-S binding assay
For each of the compounds below, state its pEC50.
One number for each entry, as −log10 of the molar value.

Below: 5 compounds and their reported pEC50.
>>> value_reported("CCCCCCCCc1cccc(NC(=O)[C@H](N)CCP(=O)(O)O)c1")
5.21
>>> value_reported("CCCCCCCCCCc1ccc(NC(=O)[C@H](N)CCP(=O)(O)O)cc1")
6.64
>>> value_reported("CCCCCCCCc1ccc(NC(=O)[C@H](N)CCP(=O)(O)O)cc1")
5.64
>>> value_reported("CCCCCCCCc1ccc(OC[C@@H](N)CCP(=O)(O)O)cc1")
6.83
>>> value_reported("CCCCCCCCc1ccc(OC[C@@H](O)CCP(=O)(O)O)cc1")
3.36

Parameters: items (list). Returns: pEC50 for each item.
1. CCCCCCCCc1cccc(NC[C@H](N)CCP(=O)(O)O)c1
2. CCCCCCCCc1ccc(CCC(N)(CO)COP(=O)(O)O)cc1 (stereo not drawn)

1. 6.47
2. 8.40

Look up pEC50 of `CCCCCCCCc1ccc(OC[C@H](N)CCP(=O)(O)O)cc1` and report it.
6.82

---

For each of the molecules below, state its EC50.
- system_name: Sphingosine 1-phosphate receptor 1 (Homo sapiens, UniProt P21453)
- Sequence (P21453 whole entry): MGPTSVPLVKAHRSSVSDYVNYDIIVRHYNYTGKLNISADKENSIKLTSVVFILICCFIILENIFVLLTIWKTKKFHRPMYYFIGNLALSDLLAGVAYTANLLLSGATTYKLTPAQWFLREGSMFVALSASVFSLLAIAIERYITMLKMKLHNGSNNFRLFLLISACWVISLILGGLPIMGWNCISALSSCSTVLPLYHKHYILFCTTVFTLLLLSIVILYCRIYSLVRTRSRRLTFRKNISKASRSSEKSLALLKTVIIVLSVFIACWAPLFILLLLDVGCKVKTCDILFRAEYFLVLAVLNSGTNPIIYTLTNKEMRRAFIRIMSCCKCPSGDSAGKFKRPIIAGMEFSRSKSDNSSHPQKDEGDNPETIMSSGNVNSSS
- measurement_notes: Activity at human S1P1 receptor expressed in HEK293T cells by [35S]GTP-gamma-S binding assay
Give bare numbers, in nM.

Below: 5 molecules and their reported EC50.
>>> value_reported("CCCCCCCCc1ccc(NC(=O)[C@H](N)CCP(=O)(O)O)cc1")
27
>>> value_reported("CCCCCCCCc1ccc(NC(=O)[C@@H](N)CCP(=O)(O)O)cc1")
1200
>>> value_reported("CCCCCCCCCCc1ccc(NC(=O)[C@H](N)CCP(=O)(O)O)cc1")
3.6
>>> value_reported("CCCCCCCCCCc1ccc(NC(=O)[C@H](N)CC(F)P(=O)(O)O)cc1 (stereo partly drawn)")
2.1
>>> value_reported("CCCCCCCCc1ccc(OC[C@@H](O)CCP(=O)(O)O)cc1")
33

Parameters: items (list). Returns: EC50 for each item.
1. CCCCCCCCc1ccc(OC[C@H](N)CCP(=O)(O)O)cc1
2. CCCCCCCCc1ccc(OC[C@@H](N)CCP(=O)(O)O)cc1
3. CCCCCCCCc1cccc(NC[C@H](N)CCP(=O)(O)O)c1

140
68
30

---

- system_name: UniProt P21453
endpoint_name: pKi
One number for each entry, as −log10 of the molar value.

Please report pKi with UniProt P21453 for item `CCCCCCCCc1cccc(NC(=O)[C@H](N)CCP(=O)(O)O)c1` .
7.52

---

- system_name: Sphingosine 1-phosphate receptor 3 (Homo sapiens)
- Sequence (Q99500 whole entry): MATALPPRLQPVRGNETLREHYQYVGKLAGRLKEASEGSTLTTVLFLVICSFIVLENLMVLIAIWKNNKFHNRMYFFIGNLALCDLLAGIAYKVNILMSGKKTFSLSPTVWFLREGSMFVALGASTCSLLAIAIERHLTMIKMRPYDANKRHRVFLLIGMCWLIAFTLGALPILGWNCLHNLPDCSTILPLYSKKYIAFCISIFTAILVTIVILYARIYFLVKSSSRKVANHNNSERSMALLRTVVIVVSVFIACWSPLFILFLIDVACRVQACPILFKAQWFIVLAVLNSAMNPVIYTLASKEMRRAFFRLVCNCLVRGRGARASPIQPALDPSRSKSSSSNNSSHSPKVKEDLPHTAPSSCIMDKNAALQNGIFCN
- measurement_notes: Efficacy at human S1P3 receptor expressed in HEK293T cells relative to S1P
- Assay type: functional, cell-based
- measurement_setup: HEK-293T
Hi! Could you tag entries with ECmax below 0.3 as 1, and those at or above as 0? Much appreciated.

Reference set, count: 8
>>> discrete_label("CCCCCCCc1cccc(NC(=O)[C@H](N)CCP(=O)(O)O)c1")
1
>>> discrete_label("CCCCCCCCc1ccc(NC(=O)[C@H](N)CCP(=O)(O)O)cc1")
0
>>> discrete_label("CCCCCCCCc1ccc(OC[C@@H](N)CCP(=O)(O)O)cc1")
1
>>> discrete_label("CCCCCCCCCCc1ccc(NC(=O)[C@H](N)CCP(=O)(O)O)cc1")
0
>>> discrete_label("CCCCCCCCCCc1ccc(NC(=O)[C@H](N)CC(F)P(=O)(O)O)cc1 (some centres not stated)")
0
>>> discrete_label("CCCCCCCCc1cccc(NC[C@H](N)CCP(=O)(O)O)c1")
1
>>> discrete_label("CCCCCCCCc1cccc(NC(=O)[C@H](N)CCP(=O)(O)O)c1")
1
>>> discrete_label("CCCCCCCCc1ccc(OC[C@H](N)CCP(=O)(O)O)cc1")
0

Does the reported ECmax of the following compound sit strictly below 0.3? CCCCCCCCc1ccc(CCC(N)(CO)COP(=O)(O)O)cc1 (configuration not stated)
0

Does the reported ECmax of the following compound sit strictly below 0.3? `CCCCCCCCc1cccc(NC(=O)[C@@H](N)CCP(=O)(O)O)c1`
1

Does the reported ECmax of the following compound sit strictly below 0.3? `CCCCCCCCc1ccc(OC[C@@H](O)CCP(=O)(O)O)cc1`
1
